EXPERIMENT DESCRIPTION: small-molecule binders of probe aNOTCH2, primary screen, biochemical, small-molecule microarray, 635/667 nm fluorescence (AID 1121);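 also: score merges feature fluorescence read at 667 nm with its signal to noise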
TEST CONDITIONS: higher = more signal
composite z-score listing for selected molecules.

{"MOLECULE": "CCCC=C(CCC)[C@@H](NS(=O)(=O)c1cccc(C(F)(F)F)c1)c1ccc(C(=O)OC)cc1", "composite z-score": 1.06}
{"MOLECULE": "CC(C)(C)OC(=O)CC[C@]1(C(=O)NCCN2CCOCC2)N=C(c2ccc(OCCCO)cc2)O[C@H]1c1ccccc1CN=[N+]=[N-]", "composite z-score": -0.057}
{"MOLECULE": "COc1cc(Cc2cc3c(c(CCc4ccccc4)n2)[Si](C(C)C)(C(C)C)OC3)cc(OC)c1OC", "composite z-score": -0.165}
{"MOLECULE": "COc1cc(CO)cc(I)c1O[C@H]1C=C(C(=O)NCCO)C[C@@H](NCCc2c[nH]c3ccccc23)[C@@H]1O", "composite z-score": -0.121}
{"MOLECULE": "COC(=O)C[C@H]1O[C@]2(C(=O)N(C)c3ccccc32)[C@@H](C)[C@@H]1[Si](C)(C)c1ccc(OC)cc1", "composite z-score": -0.135}
{"MOLECULE": "CCN1C(C)=C(C(=O)OC)[C@@H](c2ccccc2)N2C(=O)[C@@]3(C(=O)OC)O[C@@]12[C@@H]1C(=O)N(C)C(=O)[C@@H]13", "composite z-score": -0.141}
{"MOLECULE": "C[C@H]1COC(=O)[C@@H]2CCCN2C(=O)[C@@H](C)COC(=O)[C@@H]2CCCN2C1=O", "composite z-score": -0.108}
{"MOLECULE": "COC(=O)C1=C(C)N(Cc2ccccc2)c2c(C(=O)OC)c(C(=O)OC)c(C(=O)OC)c(=O)n2[C@@H]1c1ccccc1", "composite z-score": -0.0158}
{"MOLECULE": "O=C1OCC=C[C@H]2OC34C=CCN(Cc5ccccc5)C(=O)[C@H]3N(CCCCCO)C(=O)[C@@H]4[C@@H]12 (stereo not given in full)", "composite z-score": -0.207}
{"MOLECULE": "COCC(=C=CC[C@H](O)c1ccc(OCCO)cc1)C[C@H](O)c1ccccn1", "composite z-score": -0.0942}
{"MOLECULE": "C#C[C@H](O[Si](C#Cc1ccccc1)(C(C)C)C(C)C)c1ccccc1", "composite z-score": -0.0743}
{"MOLECULE": "COC(=O)c1ccc(C#CC(NP(=O)(c2ccccc2)c2ccccc2)c2ccccc2)cc1 (stereo not given)", "composite z-score": 0.335}
{"MOLECULE": "Cc1ccc(S(=O)(=O)N[C@H]2COC(=O)CC=C[C@H](C)COC(=O)N[C@@H](C)C(=O)CC=C[C@@H]2C)cc1", "composite z-score": -0.145}
{"MOLECULE": "COc1cccc([C@H]2N[C@H](C(=O)O)CC[C@@H]2C)c1", "composite z-score": -0.129}
{"MOLECULE": "CC(C)N1CC=CC23O[C@@H]4/C=C\\CCCOC(=O)C4[C@H]2C(=O)N(CCCCCO)[C@@H]3C1=O (stereo not given in full)", "composite z-score": -0.169}
{"MOLECULE": "N#Cc1ccc(NN2C(C(O)c3ccc(I)cc3)C=CC3C(=O)N(c4ccccc4)C(=O)C32)cc1 (stereo not given)", "composite z-score": 0.139}
{"MOLECULE": "C[C@@H]1CC[C@H]2C(=O)N3CCC[C@H]3C(=O)N2[C@H]1c1ccc(Br)cc1", "composite z-score": -0.174}
{"MOLECULE": "O=C1C2C=CC(C(O)C#Cc3ccccc3)N(Nc3ccccc3)C2C(=O)N1c1ccccc1 (stereo not given)", "composite z-score": -0.0176}
{"MOLECULE": "C=CCNC(=O)[C@H]1[C@@H]2C(=O)O[C@@H](c3ccccc3)[C@@H](c3ccccc3)N2[C@@H](c2ccccc2OCCO)[C@]12C(=O)N(C(=O)OCCOC)c1ccc(C#CCNC(N)=O)cc12", "composite z-score": -0.101}
{"MOLECULE": "CO[C@@H]1COC(=O)[C@@H]2CCCN2C(=O)CC=C[C@@H](C)[C@H](OC)COC(=O)[C@@H]2CCCN2C(=O)CC=C[C@H]1C", "composite z-score": -0.141}
{"MOLECULE": "C=CCC(OC(C)=O)[C@@H]1[C@@H](N(Cc2cc3ccccc3o2)C(=O)c2ccc(C)cc2)c2cc(OCCCO)ccc2N1C(=O)c1ccc2ccccc2n1 (stereo not given in full)", "composite z-score": -0.0037}
{"MOLECULE": "[N-]=[N+]=NCc1ccccc1C[C@@]1(C(=O)O)N=C(c2ccc(OCCCO)cc2)O[C@@H]1c1ccccc1N=[N+]=[N-]", "composite z-score": -0.0424}
{"MOLECULE": "COc1ccc([Si](C)(C)[C@@H]2[C@@H](CCO)O[C@]3(C(=O)N(Cc4ccccc4)c4ccccc43)[C@H]2C)cc1", "composite z-score": -0.125}
{"MOLECULE": "CC(=O)NCCCC[C@@H]1NC(=O)[C@@H]2C[C@H](C(=O)NCCCCCNC(=O)CS)[C@H](c3ccc(O)cc3)N2C1=O", "composite z-score": -0.203}
{"MOLECULE": "COCCOC(=O)N1C(=O)[C@@]2(c3cc(C#CC4=CCCCC4)ccc31)[C@H](c1ccc(O)cc1)N1[C@H](c3ccccc3)[C@H](c3ccccc3)OC(=O)[C@H]1[C@@H]2C(=O)N1CCCCCCC1", "composite z-score": -0.122}
{"MOLECULE": "COc1ccc(C(O)C2C=CC3C(=O)N(C)C(=O)C3N2N2CCCCC2)cc1OCc1ccccc1 (stereo not given)", "composite z-score": -0.0546}
{"MOLECULE": "O=C/C=C/c1ccc(/C=C/c2ccccc2)cc1", "composite z-score": -0.175}
{"MOLECULE": "COc1cccc([C@@H]2[C@@H](C)CC[C@H]3C(=O)N4[C@H](c5cccc(OC)c5)[C@@H](C)CC[C@H]4C(=O)N23)c1", "composite z-score": -0.0262}
{"MOLECULE": "C=CCC(OC(C)=O)[C@@H]1[C@@H](N(Cc2ccc(-c3ccccc3)cc2)C(=O)c2ccc(C)cc2)c2cc(OCCCO)ccc2N1C(=O)c1ccc(-c2ccccc2)cc1 (stereo not given in full)", "composite z-score": -0.0664}
{"MOLECULE": "COCCOC(=O)N1C(=O)[C@@]2(c3ccccc31)[C@H](C(=O)N1CCc3cc(OC)c(OC)cc3C1)[C@H]1C(=O)O[C@H](c3ccccc3)[C@H](c3ccccc3)N1[C@@H]2c1ccccc1OCCO", "composite z-score": -0.0607}
